- Tested on: Aβ40
- Protocol Notes: In vitro BACE cell-based assay (Aβ40 sandwich ELISA, cells stably expressing APP)
- Condition Parameters: Homo sapiens, HEK293, average IC50, cell assay, HEK cells
- Protocol: In Vitro BACE Cell-Based Assay […] Cells stably expressing Amyloid Precursor Protein (APP) were plated at a density of 40K cells/well in 96 well plates (Costar). The cells were cultivated for 24 hours at 37° C. and 5% CO2 in DMEM supplemented with 10% FBS. […] The IC50 of the compound was calculated from the percent of control or percent inhibition of Aβ40 as a function of the concentration of the test compound. […]
Readout Label: IC50 (nM)
# output: bare number, implied unit nM

Recall the reported IC50 of COc1cc2c(cn1)Oc1ccc(-c3cc(F)ccc3Cl)cc1[C@@]21COCC(N)=N1 [compound 125] when tested on Aβ40.
12.4

Quote Aβ40 IC50 for entry NC1=N[C@@]2(COC1)c1cc(-c3cccnc3F)ccc1Oc1cnc(C3=CCOCC3)cc12 [compound 71] .
1.2

Fill: IC50 (Aβ40) for this compound NC1=N[C@@]2(COC1)c1cc(-c3cncnc3)ccc1Oc1cnc(-c3ccnc(F)c3)cc12 [compound 78]
1.1

Report IC50 from Aβ40 testing of NC1=N[C@]2(CCO1)c1cc(-c3cccnc3F)ccc1Oc1cnc(-c3cncc(F)c3)cc12 [compound 152]
108

Quote IC50 with test system Aβ40 for NC1=N[C@]2(CCO1)c1cc(-c3cccnc3F)ccc1Oc1c2cc(-c2ccnc(F)c2)nc1F [compound 106]
2640

Provide the reported IC50 (system: Aβ40) for CC1(C#Cc2cnc3c(c2)[C@@]2(COCC(N)=N2)c2cc(-c4cccnc4F)ccc2O3)COC1 [compound 88]
198

Fill in IC50 for NC1=N[C@@]2(COC1)c1cc(-c3cc(Cl)ccc3F)ccc1Oc1ncc(N3CC[C@@H](F)C3)cc12 [compound 92] tested with Aβ40.
1.9

# assay system Aβ40: give IC50 of Cc1ccc(-c2cnc3c(c2)[C@]2(COCC(N)=N2)c2cc(-c4cccnc4F)ccc2O3)cc1 [Example 90]
1.2

Provide the reported IC50 (system: Aβ40) for CC(C)(C#N)COc1cc2c(cn1)Oc1ccc(-c3cc(Cl)ccc3F)cc1[C@@]21COCC(N)=N1 [compound 127]
1.4

Find the measured IC50 of NC1=N[C@@]2(CCO1)c1cc(-c3cccnc3F)ccc1Oc1cnc(C3=CCOCC3)cc12 [Example 111] with Aβ40 as test system.
2.1

For Aβ40, give IC50 of the listed compound: CC(C)(C)COc1cc2c(cn1)Oc1ccc(-c3cccnc3F)cc1[C@@]21COCC(NC=O)=N1 [Example 43]
1.2

Enter recorded IC50 with Aβ40 for CC1(COc2cc(F)c3c(c2)[C@@]2(COCC(N)=N2)c2cc(-c4cccnc4F)ccc2O3)COC1 [compound 82] here.
121

System Aβ40. Read-out IC50. Item NC1=N[C@@]2(COC1)c1cc(-c3cccnc3F)ccc1Oc1c(F)cc(-c3ccnc(F)c3)cc12 [Example 36A] . Report value.
2.9

// fetch IC50 for NC1=N[C@@]2(COC1)c1cc(-c3cccnc3F)ccc1Oc1cnc([C@H]3CCCOC3)cc12 [compound 80] ; system: Aβ40
5.8

Recall the reported IC50 of NC1=N[C@]2(COC1)c1cc(-c3cccnc3F)ccc1Oc1cnc(-c3ccnc(F)c3)cc12 [compound 70] when tested on Aβ40.
268

GET IC50 where system = Aβ40 and item = NC1=NC2(CCO1)c1cc(-c3cccnc3)ccc1Oc1cnc(-c3cccnc3)cc12 (stereo not drawn) [compound 150]
10.3

State recorded IC50 with Aβ40, entry NC1=N[C@@]2(COC1)c1cc(-c3cncc(F)c3)ccc1Oc1cnc(-c3ccnc(F)c3)cc12 [compound 113] , no comment.
1

With Aβ40 as the test system, provide measured IC50 for this compound: NC1=N[C@@]2(COC1)c1cc(-c3cnccc3F)ccc1Oc1cnc(-c3ccc(F)c(F)c3)cc12 [compound 117]
1.6

// fetch IC50; item: NC1=N[C@]2(COC1)c1cc(C3=CCOCC3)ccc1Oc1ccc(-c3cccnc3F)cc12 [Example 64] ; system: Aβ40
5.2

Look up Aβ40 data: IC50 of NC1=N[C@@]2(COC1)c1cc(-c3cccnc3F)ccc1Oc1c(F)cc(C3=CCCOC3)cc12 [Example 132] , then report it.
1.3

# return IC50 of NC1=N[C@@]2(CCO1)c1cc(-c3cncc(F)c3)ccc1Oc1cnc(-c3ccnc(F)c3)cc12 [Example 145] (system: Aβ40)
4

Please look at NC1=N[C@@]2(CCO1)c1cc(-c3cccnc3F)ccc1Oc1c2cc(C2=CCCOC2)nc1F [Example 110] and tell me its recorded IC50 on Aβ40.
0.5

Report IC50 on Aβ40 for this entry: CC(C)(C)C#Cc1cc2c(cn1)Oc1ccc(-c3cncc(F)c3)cc1[C@@]21CCOC(N)=N1 [compound 139]
6.9

Provide the reported IC50 (system: Aβ40) for NC1=N[C@@]2(CCO1)c1cc(-c3cccnc3F)ccc1Oc1cnc(-c3cncc(Cl)c3)cc12 [compound 141]
22.5

---

- System: Aβ40
- Protocol Notes: In vitro BACE cell-based assay (Aβ40 sandwich ELISA, cells stably expressing APP)
- Condition Parameters: Homo sapiens, HEK293, average IC50; read-out: HEK cell assay
Can you tell me pIC50 for the items I'm about to list?
On this scale, pIC50 is minus log10 of a concentration expressed in M (mol/L).

# return pIC50 of CC(C)(F)COc1cc(F)c2c(c1)[C@]1(CCOC(N)=N1)c1cc(-c3cccnc3F)ccc1O2 (system: Aβ40)
8.39

Give reported pIC50 for CC(C)(C)COc1cc2c(cn1)Oc1ccc(Br)cc1[C@@]21COCC(N)=N1 (Aβ40)
7.20

Report measured pIC50 on Aβ40; entry: NC1=N[C@@]2(COC1)c1cc(-c3cc(F)ccc3F)ccc1Oc1ncc(-c3ccncc3)cc12
8.37

Report its pIC50 with Aβ40 as the test system: CC(C)Oc1cc2c(cn1)Oc1ccc(-c3cccnc3)cc1[C@@]21COCC(N)=N1
8.38

---

Readout Label: IC50
For clarity, give the value followed by its unit.

Name the value of IC50 reported for NC1=N[C@@]2(CCS1)c1cc(-c3cccnc3F)ccc1Oc1cnc(Cl)cc12 [compound 199] when tested on UniProt:P56817.
Sequence (P56817 46-501, species assumed): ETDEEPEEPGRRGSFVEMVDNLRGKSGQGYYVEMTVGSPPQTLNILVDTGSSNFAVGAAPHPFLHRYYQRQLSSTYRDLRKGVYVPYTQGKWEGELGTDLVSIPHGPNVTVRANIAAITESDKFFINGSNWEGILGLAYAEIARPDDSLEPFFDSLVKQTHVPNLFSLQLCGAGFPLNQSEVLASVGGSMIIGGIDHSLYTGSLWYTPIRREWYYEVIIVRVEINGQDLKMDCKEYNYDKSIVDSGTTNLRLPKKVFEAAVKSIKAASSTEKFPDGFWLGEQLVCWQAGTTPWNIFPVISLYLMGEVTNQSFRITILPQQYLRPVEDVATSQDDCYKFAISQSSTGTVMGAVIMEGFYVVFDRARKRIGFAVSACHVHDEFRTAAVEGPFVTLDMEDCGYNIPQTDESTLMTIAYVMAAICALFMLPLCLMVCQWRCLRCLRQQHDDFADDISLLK
90.8 nM

Enter recorded IC50 with UniProt:P56817 for CC(C)Oc1cc2c(cn1)Oc1ccc(-c3cccnc3)cc1[C@@]21COCC(N)=N1 [compound 258] here.
2.7 nM

Tell me IC50 of CC(C)(F)COc1cc(F)c2c(c1)[C@@]1(COCC(N)=N1)c1cc(-c3cccnc3F)ccc1O2 [37B] when tested on UniProt:P56817.
110 nM

Consider the compound NC1=N[C@@]2(COC1)c1cc(-c3cccnc3F)ccc1Oc1c(F)cc(C3=CCCOC3)cc12 [Example 132] tested on UniProt:P56817; state its IC50.
0.3 nM

Fetch value of IC50 on UniProt:P56817 for CC(C)COc1cc2c(cn1)Oc1ccc(-c3cccnc3F)cc1[C@@]21COCC(N)=N1 [compound 255] .
0.5 nM

---

- Tested on: Aβ40
- Protocol Notes: In vitro BACE cell-based assay (Aβ40 sandwich ELISA, cells stably expressing APP)
- Condition Parameters: Homo sapiens, HEK293, average IC50; read-out: HEK cell assay
Readout Label: log10 of IC50 (log10 of the value in nM)
Short version: log10 scale, IC50, nM.

Indicate its recorded log10 of IC50; the compound in question is NC1=N[C@]2(CCS1)c1cc(-c3cccnc3F)ccc1Oc1cnc(Cl)cc12
3.75

Consider the compound NC1=N[C@@]2(COC1)c1cc(-c3cccnc3F)ccc1Oc1cnc(OC(F)F)cc12 and give its recorded log10 of IC50.
1.06

For CC(C)(C)COc1cnc2c(c1)[C@]1(COCC(N)=N1)c1cc(-c3cccnc3F)ccc1O2 , write its log10 of IC50.
-0.40

Return reported log10 of IC50. Input compound: NC1=N[C@@]2(COC1)c1cc(-c3cccnc3F)ccc1Oc1c2cc(C2=CCCOC2)nc1F
-0.40

Respond only with log10 of IC50 recorded for CC(C)(C)COc1ccc2c(c1)[C@]1(COCC(N)=N1)c1cc(-c3cccnc3F)ccc1O2
1.12

Report log10 of IC50, nothing else, for this compound: CC(C)(C)COc1cnc2c(c1)[C@]1(CCOC(N)=N1)c1cc(-c3cccnc3F)ccc1O2
0.68

Tell me measured log10 of IC50 for CC(C)(C)C#Cc1ccc2c(c1)[C@@]1(COCC(N)=N1)c1cc(C3=CCOCC3)cnc1O2 please.
0.79

Identify measured log10 of IC50 corresponding to N#Cc1cccc(-c2ccc3c(c2)[C@]2(CCOC(N)=N2)c2cc(C4=CCCOC4)nc(F)c2O3)c1
2.99

Using known records, supply log10 of IC50 for NC1=N[C@@]2(CCO1)c1cc(-c3cccnc3F)ccc1Oc1c2cc(-c2cccnc2)nc1F
-0.05
